- Tested on: COLO 205 colon
- PROTOCOL SUMMARY: NCI tumour cell line growth inhibition, 48 h
Where a SMILES comes first, the peptide text is derived from it. The star is where a group is joined. Boc = CC(C)(C)OC(=O)*; nBu = CCCC*
I'd be grateful if you could share measured TGI for these entries.

Noted for CCOC(=O)c1nc2ccc(C(F)(F)F)cc2nc1Nc1ccc(OC)cc1 : its TGI reads > 100 µM

Sure, the documented TGI for COc1ccc(/C=C\c2cc(OC)c(OC)c(OC)c2)cc1 is 11.5 µM

// field: TGI; key: COc1cc(C2c3cc4c(cc3C(=O)C3CCC(=O)N32)OCO4)cc(OC)c1O (stereo unspecified) ; value = > 50 µM

TGI reading for Cc1c(/C=N/NC(=S)N2CCCCC2)c(=O)n(-c2ccccc2)n1C : > 100 µM

# TGI of OCC(O)C(O)C(O)C(O)c1nnc2c(-c3ccccc3)nc3ccccc3n12 (stereo unspecified) = > 100 µM

molecule O=[N+]([O-])/C=C/c1ccc(Cl)cc1[N+](=O)[O-] , TGI observed: 3.47 µM

Consider Cc1nn(C(=O)c2ccncc2)c2c1C(c1ccccc1[N+](=O)[O-])SC(N)=N2 (stereo unspecified) . Its measured TGI is > 10 µM

TGI for Cc1cc(NN=C(c2ccc(O)cc2)c2ccc(O)cc2)c([N+](=O)[O-])cc1[N+](=O)[O-] is 40.5 µM

Value of measured TGI for the entry COC(=O)c1c(O)ccc2c1c1cc3ccccc3c(O)c1n2CCc1ccc(OC)c(OC)c1 : 30.4 µM

Sure, the documented TGI for COc1cc2cc(Oc3cccc(NC(=O)Nc4cc(C(F)(F)F)cc(C(F)(F)F)c4)c3)c(C)nc2cc1OC is 3.58 µM

So for CC1=NN(c2nc(N)nc(/C(C#N)=C\c3ccc(-c4ccc([N+](=O)[O-])cc4)o3)n2)C(C)(C)C1 , the logged TGI turned out to be > 100 µM

Recorded result, CC(=O)OCC1OC(n2c3c(cc(C#N)c2=S)CCCC3)C(OC(C)=O)C(OC(C)=O)C1OC(C)=O (stereo unspecified) , TGI: > 100 µM

For reference, reported TGI for NC(=O)/C(=C/n1cnc(-c2cc(C(F)(F)F)cc(C(F)(F)F)c2)n1)c1cncnc1 stands at 11.5 µM

Lookup result for Cc1cc(S(N)(=O)=O)c(S/C(=N\NS(=O)(=O)c2ccccc2)c2ccc(Cl)cc2)cc1Cl ; measured TGI: > 100 µM

Record C=CC(=O)Nc1cc2c(Nc3ccc(F)c(Cl)c3)ncnc2cc1C#CC(C)(C)N1CCN(C)CC1 , field TGI: 5.43 µM

response.value for O=c1c(Sc2c(SCSc3cnc4ccccc4c3Sc3c[nH]c4ccccc4c3=O)cnc3ccccc23)c[nH]c2ccccc12 (field: TGI) = > 100 µM

Field TGI (entry CCCCOc1ccc(CC(NC(=O)OC(C)(C)C)C(=O)NC(C)C(=O)NC(Cc2ccccc2)C(=O)NCC(N)=O)cc1 (stereo unspecified) (Boc-Y(nBu)AFG-NH2; configuration not given here) ) reads > 100 µM

The measured TGI associated with COc1ccc(CCn2cncn2)cc1 reads > 100 µM

Short answer for O=C(Nc1ccccc1)OCCN=C1c2ccccc2CCc2ccccc21 : TGI was 33.1 µM

In plain terms, O=[N+]([O-])c1ccc(-c2nn3c(C45CC6CC(CC(C6)C4)C5)nnc3s2)c(Cl)c1 has a documented TGI of > 100 µM

Memo: COC(=O)[C@@](NC(=O)OCc1ccccc1)([C@H](C)O)C(F)(F)F , reported TGI: > 100 µM

The recorded TGI for entry CCOC(=O)[C@@H]1CSC(CC)=C(C(=O)O)N1 equals > 100 µM

get_value(item= CCCc1cc(OC(=O)c2c(O)cc(OC)cc2CCC)cc(O)c1C(=O)O , readout=TGI) returns 79.2 µM

Recorded TGI (molecule CCCCC1(C(NC(=O)c2ccccc2Cl)c2ccncc2)C(=O)N(c2ccccc2)N(c2ccccc2)C1=O (stereo unspecified) ): 52.6 µM

Data point: O=c1cccc(Cl)[nH]1 ; TGI = > 100 µM

TGI recorded for this molecule, COc1cccc(/C=N\NC(=O)C(C)SC(C)C(=O)N/N=C/c2cccc(OC)c2)c1 (stereo unspecified) , is > 63.9 µM

The reported value for O=C1CSC(c2ccccc2O)N1c1ccc(-n2c(-c3ccccc3)nc3ccccc3c2=O)cc1 (stereo unspecified) in terms of TGI is > 100 µM

Reported TGI of Cc1ccc(-c2cc(-c3ccccc3)c(C#N)c(=O)[nH]2)cc1 : > 100 µM

Record OCC(O)C(O)C(O)c1nn(-c2ccc(F)cc2)c2nc3cc(Cl)c(Cl)cc3nc12 (stereo unspecified) . Reported TGI: > 100 µM

Item: CCCCCCCCCCCCCCCCNC(=O)/C(=C\c1ccc(Cl)c(Cl)c1)NC(=O)c1ccccc1 | TGI: > 100 µM

OCCN(CO)CO has a reported TGI of > 100 µM

Quick note, TGI for COc1cc2cc(C(=O)N3CC(CCl)c4ccc([N+](C)(C)Cc5ccccc5[N+](=O)[O-])cc43)[nH]c2c(OC)c1OC (stereo unspecified) landed at 14.9 µM

Entry under test: C[C@H]1CC[P+](C)(c2ccccc2)C1 (stereo partly specified) . Its TGI was > 100 µM

Recorded TGI (molecule N#C/C(=C(/O)CCl)c1nc2ccccc2o1 ): 3.45 µM

The molecule C#C[C@]1(O)CC[C@H]2[C@@H]3CCc4cc(O)ccc4[C@H]3CC[C@@]21C showed TGI equal to 92.7 µM

molecule COC(=O)/C=C/[C@@H]1[C@H](C)N1S(=O)(=O)c1ccc(C)cc1 (stereo partly specified) , TGI observed: > 100 µM

Data origin, for the record: PubChem BioAssay (NCI)
